src = paper PMC7308506

- tgt: T1, activated factor XII
- T1 chain 1: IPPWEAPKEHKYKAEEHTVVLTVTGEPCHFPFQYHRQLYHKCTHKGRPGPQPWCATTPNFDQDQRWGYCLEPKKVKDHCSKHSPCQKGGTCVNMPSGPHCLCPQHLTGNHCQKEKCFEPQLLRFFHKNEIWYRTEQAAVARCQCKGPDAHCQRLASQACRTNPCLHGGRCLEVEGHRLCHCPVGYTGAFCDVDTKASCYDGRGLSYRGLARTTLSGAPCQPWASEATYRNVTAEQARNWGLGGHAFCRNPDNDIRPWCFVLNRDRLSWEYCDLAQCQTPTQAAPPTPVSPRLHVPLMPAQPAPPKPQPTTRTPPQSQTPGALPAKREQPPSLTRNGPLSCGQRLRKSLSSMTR
- T1 chain 2: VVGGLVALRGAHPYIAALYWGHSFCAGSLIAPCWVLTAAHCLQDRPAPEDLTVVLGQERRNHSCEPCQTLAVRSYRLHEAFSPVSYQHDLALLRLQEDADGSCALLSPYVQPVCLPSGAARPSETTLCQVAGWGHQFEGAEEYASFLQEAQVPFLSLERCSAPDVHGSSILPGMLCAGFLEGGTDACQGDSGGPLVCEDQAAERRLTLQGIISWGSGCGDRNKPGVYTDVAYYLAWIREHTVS
- experimental-details: SPR
readout-type: pKd
Worth noting: pKd values are minus log10 of concentrations stated in mol/L.

Param item = LCTX-F2 (peptide) GAKACTPRLHDCSHDRHSCCRGELFKDVCYCFYPEGEDKTEVCSCQQPKSHKYIEKVVDKTKTLVG ; retrieve measured pKd. 8.14
